Data provenance: patent US20210032299A1

target: T1, human glucagon receptor (human, UniProt P47871 26-477); test: SPA, displacement of [125I]-Gcg from hGcgR membranes, 0.1% bacitracin
T1 construct: whole, on cells; Assayed as crude membranes of stably transfected HEK293 cells; also called hGcgR; GcgR
T1 sequence (P47871 26-477): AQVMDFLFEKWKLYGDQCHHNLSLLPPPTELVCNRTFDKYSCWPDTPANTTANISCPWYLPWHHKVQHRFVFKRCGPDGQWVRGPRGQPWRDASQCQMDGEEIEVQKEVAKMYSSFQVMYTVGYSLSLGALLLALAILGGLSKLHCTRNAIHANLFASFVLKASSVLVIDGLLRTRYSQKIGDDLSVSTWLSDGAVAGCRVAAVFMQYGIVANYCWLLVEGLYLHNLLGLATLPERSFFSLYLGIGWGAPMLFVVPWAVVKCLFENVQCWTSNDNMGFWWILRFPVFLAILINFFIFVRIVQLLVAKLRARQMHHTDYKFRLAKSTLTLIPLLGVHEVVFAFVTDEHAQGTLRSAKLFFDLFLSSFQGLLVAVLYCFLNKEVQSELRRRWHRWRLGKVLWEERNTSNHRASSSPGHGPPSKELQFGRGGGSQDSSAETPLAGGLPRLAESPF
quantity.measured: Ki (nM)
# number only, unit nM dropped from output

Guide cases for Ki, answers given:
# binder, quantity.measured, test.value
data = [
    ("YXEGTFISDYSILLDKKAQXEFVNWLLAQGPSSGAPPPS (D-Ala2; K17((2-[2-(2-Amino-ethoxy)-ethoxy]-acetyl)2-(γ-Glu)-CO-(CH2)16-CO2H); Aib20; C-terminal amide) [Example 20]", "Ki", 216),
    ("YXEGTFISDYSILLDKKAQXDFVNWLLAQGPSSGAPPPS (D-Ala2; K17((2-[2-(2-Amino-ethoxy)-ethoxy]-acetyl)2-(γ-Glu)-CO-(CH2)18-CO2H); Aib20; C-terminal amide) [Example 1]", "Ki", 228),
]

Alright, here's another binder for you.
Short answer for YXEGTFISDYSILLDKKAQXDFVNWLLEQGPSSGAPPPS (D-Ala2; K17((2-[2-(2-Amino-ethoxy)-ethoxy]-acetyl)2-(γ-Glu)-CO-(CH2)16-CO2H); Aib20; C-terminal amide) [Example 17] : Ki was 274
